System: mESC Bmi1-luciferase reporter, firefly/renilla ratio, 24 h
Assay: compounds raising Bmi1 reporter signal – mouse embryonic stem cells, luciferase, cherry-pick, esBAF inhibitor project, dose response (AID 651717);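 further: luciferase knocked into Bmi1 locus with EF-1a renilla as cell number control; rising ratio signals esBAF inhibition which derepresses Bmi1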
QUANTITY MEASURED: AC40

The cases that follow already have their AC40 on record.
| MOLECULE | QUANTITY MEASURED | OBS VALUE |
| --- | --- | --- |
| Brc1ccccc1-c1nnc(-c2cccnc2)o1 | AC40 | 6.08 µM |
| O=C(Nc1ccc2c(c1)COC2=O)c1ccc(Cl)c(Cl)c1 | AC40 | 2.46 µM |
| O=C(Nc1ccc(F)cc1)c1ccccc1F | AC40 | 5.97 µM |

**Q:** Dear colleague, I am looking for the recorded AC40 of the following molecule: Cc1ccc(N(Cc2ccccc2)C(=O)c2cccc(S(=O)(=O)N3CC(C)OC(C)C3)c2)cc1 (stereo unspecified)
**A:** 29.6 µM

**Q:** Dear colleague, I am looking for the recorded AC40 of the following molecule: `Cc1cc(C)c2c(N)c(C(=O)Nc3ccccc3Br)sc2n1`
**A:** 2.16 µM

**Q:** Dear colleague, I am looking for the recorded AC40 of the following molecule: `COc1cccc(NC(=O)c2ccc3c(c2)CCN3S(C)(=O)=O)c1`
**A:** 7.43 µM
